# MEASUREMENT NOTES: solvent given as SMILES
# ASSAY CONTEXT: in CCCCCCCCO
PROPERTY: absorption maximum

In the examples that follow, each entry is paired with its recorded absorption maximum.
O=C1c2ccccc2-c2ccc(N3CCN(c4ccccc4)CC3)c3cccc1c23 445 nm
Oc1ccccc1/N=C/c1ccccc1Oc1ccccc1 355 nm

Give me measured absorption maximum, please, for this compound: Nc1ccc2c(C(F)(F)F)cc(=O)oc2c1
383 nm

* * *

# MEASUREMENT NOTES: solvent given as SMILES
# ASSAY CONTEXT: in C1COCCO1
PROPERTY: absorption maximum (nm)
Answers are plain numbers, in nm.

MOLECULE	absorption maximum [nm]
Cc1cc(C2(c3cc(C)c(O)c(Br)c3)OS(=O)(=O)c3ccccc32)cc(Br)c1O	396
CC1(C)c2ccccc2N(c2ccc(-c3nnc(-c4ccccc4O)o3)cc2)c2ccccc21	363
CCCCC1=Cc2c3ccc4cccc5ccc(c6cc(-c7ccccc7)n(c26)P1(=O)c1ccccc1)c3c45 (centres undefined)	430

Give me measured absorption maximum, please, for this molecule: CCC12C(=C3C(=C4c5ccc(-c6ccccc6)cc5S(=O)(=O)C41CC)C(F)(F)C(F)(F)C3(F)F)c1ccc(-c3ccccc3)cc1S2(=O)=O (centres undefined)
456

* * *

# MEASUREMENT NOTES: solvent given as SMILES
# ASSAY CONTEXT: in CS(C)=O
PROPERTY: absorption maximum (nm)
Answers are plain numbers, in nm.

In the examples that follow, each entry is paired with its recorded absorption maximum.
Cc1ccc(-n2c(-c3ccc(C(F)(F)F)cc3)nc(-c3ccccc3O)c2-c2ccccc2O)cc1 313
Nc1ccc2c(C(F)(F)F)cc(=O)oc2c1 386

Now, please, on to the next compound.
Give me measured absorption maximum, please, for this compound: CC(C)(C)NS(=O)(=O)c1ccc2c(c1)C(=O)/C(=C1\Sc3ccc(S(=O)(=O)NC(C)(C)C)cc3C1=O)S2
546

* * *

# MEASUREMENT NOTES: solvent given as SMILES
# ASSAY CONTEXT: in ClC(Cl)Cl
PROPERTY: absorption maximum (nm)
Numbers only, in nm.

In the examples that follow, each entry is paired with its recorded absorption maximum.
C[Si](C)(C)c1sc([Si](C)(C)C)c2c1sc1c3sc4c(sc5c4sc4c([Si](C)(C)C)sc([Si](C)(C)C)c45)c3sc12 405
O=C1c2ccccc2S(=O)(=O)c2ccc(-n3c4ccccc4c4ccccc43)cc21 404
CCc1cc(CC)cc(-n2c3ccccc3c3cc4c(cc32)c2ccccc2n4-c2cc(CC)cc(CC)c2)c1 410

Now, please, on to the next compound.
Give me measured absorption maximum, please, for this compound: CCCCCCN1C(=O)c2cccc3c(-c4ccc(-c5cccs5)s4)ccc(c23)C1=O
409

* * *

# MEASUREMENT NOTES: solvent given as SMILES
# ASSAY CONTEXT: in CCCCCC
Is absorption maximum at least 400 nm? Then true. If not, false.

c1cc2ccc3ccc(-n4c5ccccc5c5ccccc54)c4ccc(c1)c2c34 false
F[B-]1(F)n2c(Cl)ccc2C(c2c(Cl)cccc2Cl)=C2C=CC(NCc3ccccc3)=[N+]21 true
CCOc1ccc2cc(-c3ccc(C)cc3)c(=O)oc2c1 false
CCCCCCC(CCCCCC)N1C(=O)c2cccc3c(-c4ccc(OC)cc4)ccc(c23)C1=O false
COc1ccc(N(c2ccc(OC)cc2)c2ccc3ccc4c(B(c5c(C)cc(C)cc5C)c5c(C)cc(C)cc5C)ccc5ccc2c3c54)cc1 true

Hi team, for CC1=CC(C)=[N+]2C1=C(c1ccc(N3CCCCC3)cc1)c1c(C)cc(C)n1[B-]2(F)F , is the recorded absorption maximum at or above 400 nm?
true

Hi team, for C(=C\c1ccc(Nc2ccccc2)cc1)/c1ccccc1 , is the recorded absorption maximum at or above 400 nm?
false

Hi team, for CCCCCCC(CCCCCC)N1C(=O)c2cccc3c(-c4ccc(OC)c5ccccc45)ccc(c23)C1=O , is the recorded absorption maximum at or above 400 nm?
false

* * *

# MEASUREMENT NOTES: solvent given as SMILES
# ASSAY CONTEXT: in ClC(Cl)Cl
The following ranges of absorption maximum define the classes used here: low bin = under 400 nm, mid bin = from 400 nm up to 500 nm, high bin = 500 nm and over

For orientation, consider the following solved cases.
COMPOUND	LABEL
Cc1ccc(/C(C#N)=C/c2cc(/C=C(\C#N)c3ccc(C)cc3)c(-c3ccc(N(c4ccccc4)c4ccccc4)cc3)cc2-c2ccc(N(c3ccccc3)c3ccccc3)cc2)cc1	low bin
CC1(C)Cc2c(c3ccccc3c3nc4c(nc23)c2c(c3ccccc34)OC(C)(C)C2)O1	mid bin
O=C1C2=C3c4ccsc4C=CN3C(=O)C2=C2c3ccsc3C=CN12	high bin

Which bin, given its absorption maximum, does F[B-]1(F)OC(c2ccccc2)=Cc2c3ccccc3c3ccccc3[n+]21 occupy?
mid bin

Which bin, given its absorption maximum, does C(#Cc1ccc(C#Cc2ccc(C#Cc3ccccc3)cc2)cc1)c1ccccc1 occupy?
low bin

Which bin, given its absorption maximum, does CCCCCCCCCCCCOc1cc2c3c(ccc4c5c(OCCCCCCCCCCCC)cc6c7c(ccc(c1c34)c75)C(=O)N(C1CCCCC1)C6=O)C(=O)N(C1CCCCC1)C2=O occupy?
high bin

Which bin, given its absorption maximum, does COc1ccc2n1[B-](F)(F)[N+]1=C(c3ccccc3)C=CC1=C2c1ccc(C)cc1 occupy?
high bin

Which bin, given its absorption maximum, does Fc1ccc(C2=NC(c3ccccc3)C(N(c3ccccc3)c3ccccc3)S2)cc1 (stereo unspecified) occupy?
low bin

Which bin, given its absorption maximum, does COc1cc2c(cc1-c1ccccc1)Cc1c3c(c4c(c1-2)-c1cc(OC)c(-c2ccccc2)cc1C4)C(=O)N(CCC(C)C)C3=O occupy?
mid bin

Which bin, given its absorption maximum, does CCCCN1C(=O)c2c(Br)c(Br)c3c4c(Br)c(Br)c5c6c(c(Br)c(Br)c(c7c(Br)c(Br)c(c2c37)C1=O)c64)C(=O)N(CCCC)C5=O occupy?
high bin

Which bin, given its absorption maximum, does Cc1ccc(N(c2ccc(C)cc2)c2ccc(-c3ccc(C=C(C#N)C#N)o3)cc2)cc1 occupy?
high bin

Which bin, given its absorption maximum, does Cc1c2c(c(C)c3ccccc13)C1=CC3Nc4ccccc4NC3C=C12 (stereo unspecified) occupy?
mid bin

Which bin, given its absorption maximum, does CCCCN1c2ccccc2Sc2cc(/C=C\c3cc(=O)oc4ccc(C)cc34)ccc21 occupy?
mid bin

Which bin, given its absorption maximum, does CCn1c2ccccc2sc2c(C#N)c3oc4ccccc4oc3c(C#N)c21 occupy?
mid bin

Which bin, given its absorption maximum, does CCN(CC)c1ccc(/C=C/c2cc(/C=C/c3ccc(N(CC)CC)cc3)nc(N)n2)cc1 occupy?
mid bin

Which bin, given its absorption maximum, does FC(F)(F)c1ccc(-c2nc(-c3ccc(C(F)(F)F)cc3)n3ccccc23)cc1 occupy?
low bin

* * *

# MEASUREMENT NOTES: solvent given as SMILES
# ASSAY CONTEXT: in CCCCCC
Please go through the items and note down their absorption maximum.

In the examples that follow, each entry is paired with its recorded absorption maximum.
CC1(C)Cc2c(c3ccccc3c3nc4c(nc23)c2c(c3ccccc34)OC(C)(C)C2)O1 450.05 nm
CN(C)c1cc(C#N)c(N(C)C)c(C#N)c1 386.7 nm

State the recorded absorption maximum for every item in the following list.
1. c1ccc2c(-c3cc(-c4nccs4)nc(-c4nccs4)c3)cccc2c1
2. c1ccc(-c2nc(-c3ccc(-c4ccc(N(c5ccccc5)c5ccccc5)cc4)cn3)oc2-c2ccccc2)cc1

325 nm
353 nm

* * *

# MEASUREMENT NOTES: solvent given as SMILES
# ASSAY CONTEXT: in CCOC(C)=O
PROPERTY: absorption maximum

In the examples that follow, each entry is paired with its recorded absorption maximum.
Cc1ccc2oc(-c3cc4cc(C)ccc4oc3=O)cc2c1 374 nm
Oc1ccc(/N=C/c2ccccc2Oc2ccccc2)cc1 340 nm
CN(C)c1ccc(-c2nc3cnccc3[nH]2)cc1 332 nm
O=c1[nH]c(=O)c2scc([C@H]3C[C@H](O)[C@@H](CO)O3)c2[nH]1 296 nm
Cc1oc(-c2ccccc2)nc1C(=O)O 267 nm
CC1=CC(C)=[N+]2C1=Cc1c3ccccc3c(C#Cc3ccc(F)cc3)n1[B-]2(F)F 607 nm

State the recorded absorption maximum for every item in the following list.
1. c1cc2ccc3ccc(-n4c5ccccc5c5ccccc54)c4ccc(c1)c2c34
2. F[B-]1(F)n2cccc2C(c2ccccc2)=C2C=CC(N3CCOCC3)=[N+]21
3. COC(=O)c1cc(/N=N/c2cc3c4c(c2)CCCN4CCC3)cc(C(=O)OC)c1
4. N#Cc1c(-c2ccccc2)cc(-c2ccccc2)[nH]c1=S
5. CN1CCN(c2ccc3c4c(cccc24)C(=O)c2ccccc2-3)CC1

1: 344 nm; 2: 480 nm; 3: 471 nm; 4: 430 nm; 5: 443 nm

State the recorded absorption maximum for every item in the following list.
1. Clc1nc(Cl)nc(Nc2ccc3cc4ccccc4cc3c2)n1
2. CC1=NN(c2ccccc2)C(=O)/C1=C/c1cn(-c2ccccc2)nc1-c1ccccc1

1: 394 nm; 2: 364 nm

Origin of values: the Deep4Chem optical property database
